Field: IC50. Provide a value for each of the compounds that follow.

[Q] Provide the reported IC50 (system: mitochondrial RNA-polymerase (POLRMT) (Mus musculus)) for COC(=O)C[C@H]1CCCN(C(=O)[C@@H](C)Oc2ccc3c(-c4ccc(F)cc4Cl)cc(=O)oc3c2)C1
Sequence (Q8BKF1 42-1207): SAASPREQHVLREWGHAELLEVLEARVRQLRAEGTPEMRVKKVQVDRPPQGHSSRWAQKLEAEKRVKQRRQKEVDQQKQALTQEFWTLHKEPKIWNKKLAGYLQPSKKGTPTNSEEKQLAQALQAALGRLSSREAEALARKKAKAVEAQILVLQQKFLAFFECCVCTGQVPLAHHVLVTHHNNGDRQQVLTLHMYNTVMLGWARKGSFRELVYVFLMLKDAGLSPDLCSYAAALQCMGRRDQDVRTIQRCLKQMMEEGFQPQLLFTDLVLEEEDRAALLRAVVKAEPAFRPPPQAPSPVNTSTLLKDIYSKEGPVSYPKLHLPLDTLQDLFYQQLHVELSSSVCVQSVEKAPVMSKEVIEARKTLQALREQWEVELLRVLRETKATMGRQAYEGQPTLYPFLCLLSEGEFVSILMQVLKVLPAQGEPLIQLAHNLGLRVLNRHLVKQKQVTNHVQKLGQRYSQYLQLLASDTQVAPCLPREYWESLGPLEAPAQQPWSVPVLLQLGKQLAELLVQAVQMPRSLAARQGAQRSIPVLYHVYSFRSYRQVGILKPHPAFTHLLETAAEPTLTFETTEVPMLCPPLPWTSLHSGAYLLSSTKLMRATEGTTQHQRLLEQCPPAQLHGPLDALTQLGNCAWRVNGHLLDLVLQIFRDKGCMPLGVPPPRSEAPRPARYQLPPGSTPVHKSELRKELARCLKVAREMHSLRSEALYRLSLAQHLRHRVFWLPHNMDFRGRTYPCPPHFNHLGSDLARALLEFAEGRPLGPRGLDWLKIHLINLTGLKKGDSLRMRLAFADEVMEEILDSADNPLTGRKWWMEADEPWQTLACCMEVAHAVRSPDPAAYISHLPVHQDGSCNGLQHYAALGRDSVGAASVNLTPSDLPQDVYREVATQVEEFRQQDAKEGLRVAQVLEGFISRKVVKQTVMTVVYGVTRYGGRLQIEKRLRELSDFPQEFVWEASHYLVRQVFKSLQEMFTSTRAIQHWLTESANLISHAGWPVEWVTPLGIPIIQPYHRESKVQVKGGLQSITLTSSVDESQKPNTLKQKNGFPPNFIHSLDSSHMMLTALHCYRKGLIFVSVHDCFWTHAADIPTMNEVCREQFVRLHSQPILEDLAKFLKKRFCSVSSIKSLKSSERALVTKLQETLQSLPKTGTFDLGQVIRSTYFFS
[A] < 20 nM

[Q] Provide the reported IC50 (system: mitochondrial RNA-polymerase (POLRMT) (Mus musculus)) for CCCCCCCOC(=O)[C@H]1CCCN(C(=O)[C@@H](C)Oc2ccc3c(-c4ccc(F)cc4Cl)cc(=O)oc3c2)C1
[A] 100 to 1000 nM

[Q] Provide the reported IC50 (system: mitochondrial RNA-polymerase (POLRMT) (Mus musculus)) for CC(C)OC(=O)[C@H]1CCCN(C(=O)[C@@H](C)Oc2ccc3c(-c4ccc(F)cc4Cl)cc(=O)oc3c2)C1
[A] 20 to 100 nM

[Q] Provide the reported IC50 (system: mitochondrial RNA-polymerase (POLRMT) (Mus musculus)) for C[C@@H](Oc1ccc2c(-c3ccc(F)cc3Cl)cc(=O)oc2c1)C(=O)N1CC[C@H](C(=O)O)C1
[A] 20 to 100 nM

[Q] Provide the reported IC50 (system: mitochondrial RNA-polymerase (POLRMT) (Mus musculus)) for CC(Oc1ccc2c(-c3ccccc3Cl)cc(=O)oc2c1)C(=O)N1CCC(CC(=O)O)CC1 (centres unmarked)
[A] 20 to 100 nM

[Q] Provide the reported IC50 (system: mitochondrial RNA-polymerase (POLRMT) (Mus musculus)) for CC(Oc1ccc2c(-c3ccccc3Cl)cc(=O)oc2c1)C(=O)N1CCC[C@@H](C(=O)O)C1 (some centres unmarked)
[A] < 20 nM

[Q] Provide the reported IC50 (system: mitochondrial RNA-polymerase (POLRMT) (Mus musculus)) for C[C@@H](Oc1ccc2c(-c3ccccc3Cl)cc(=O)oc2c1)C(=O)N(C)C
[A] < 20 nM

[Q] Provide the reported IC50 (system: mitochondrial RNA-polymerase (POLRMT) (Mus musculus)) for CC(Oc1ccc2c(-c3ccccc3Cl)cc(=O)oc2c1)C(=O)N1CCCC(C#N)C1 (centres unmarked)
[A] < 20 nM

[Q] Provide the reported IC50 (system: mitochondrial RNA-polymerase (POLRMT) (Mus musculus)) for CC(Oc1ccc2c(-c3ccccc3Cl)cc(=O)oc2c1)C(=O)N1CCCC(CC(=O)O)C1 (centres unmarked)
[A] 20 to 100 nM

[Q] Provide the reported IC50 (system: mitochondrial RNA-polymerase (POLRMT) (Mus musculus)) for CCOC(=O)C(C)Oc1ccc2c(-c3ccc(F)cc3Cl)cc(=O)oc2c1 (centres unmarked)
[A] 20 to 100 nM

[Q] Provide the reported IC50 (system: mitochondrial RNA-polymerase (POLRMT) (Mus musculus)) for Cc1ccccc1-c1cc(=O)oc2cc(O[C@H](C)C(=O)NC(C)C)ccc12
[A] < 20 nM

[Q] Provide the reported IC50 (system: mitochondrial RNA-polymerase (POLRMT) (Mus musculus)) for COCCc1ccc(NC(=O)[C@@H](C)Oc2ccc3c(-c4ccc(F)cc4Cl)cc(=O)oc3c2)cc1
[A] 100 to 1000 nM

[Q] Provide the reported IC50 (system: mitochondrial RNA-polymerase (POLRMT) (Mus musculus)) for C[C@@H](Oc1ccc2c(-c3ccc(F)cc3Cl)cc(=O)oc2c1)C(=O)Nc1cncc(C(=O)O)c1
[A] < 20 nM

[Q] Provide the reported IC50 (system: mitochondrial RNA-polymerase (POLRMT) (Mus musculus)) for C=CC(=O)N1CCN(C(=O)[C@@H](C)Oc2ccc3c(-c4ccc(F)cc4Cl)cc(=O)oc3c2)CC1
[A] < 20 nM

[Q] Provide the reported IC50 (system: mitochondrial RNA-polymerase (POLRMT) (Mus musculus)) for COC(=O)C[C@H]1CCN(C(=O)[C@@H](C)Oc2ccc3c(-c4ccc(F)cc4Cl)cc(=O)oc3c2)C1
[A] 20 to 100 nM

[Q] Provide the reported IC50 (system: mitochondrial RNA-polymerase (POLRMT) (Mus musculus)) for Cc1ccccc1-c1cc(=O)oc2cc(OC(C)C(=O)N3CCCC(c4nn[nH]n4)C3)ccc12 (centres unmarked)
[A] < 20 nM

[Q] Provide the reported IC50 (system: mitochondrial RNA-polymerase (POLRMT) (Mus musculus)) for Cc1ccccc1-c1cc(=O)oc2cc(OC(C)C(=O)N3CCCC(C#N)C3)ccc12 (centres unmarked)
[A] < 20 nM
